Ref: patent US20260132129A1

biological target: PI3Kα H1047R (T47D cells) (Homo sapiens, UniProt P42336, H1047R); construct: endogenous in cells; host or cells: T47D cells; test: PI3Kα cellular assay: pAKT HTRF in T47D cells after EGF stimulation; format: cell-based; conditions: T47D cells (PI3Kα H1047R), pAKT S473 HTRF, EGF stimulation
Sequence (P42336 whole entry H1047R): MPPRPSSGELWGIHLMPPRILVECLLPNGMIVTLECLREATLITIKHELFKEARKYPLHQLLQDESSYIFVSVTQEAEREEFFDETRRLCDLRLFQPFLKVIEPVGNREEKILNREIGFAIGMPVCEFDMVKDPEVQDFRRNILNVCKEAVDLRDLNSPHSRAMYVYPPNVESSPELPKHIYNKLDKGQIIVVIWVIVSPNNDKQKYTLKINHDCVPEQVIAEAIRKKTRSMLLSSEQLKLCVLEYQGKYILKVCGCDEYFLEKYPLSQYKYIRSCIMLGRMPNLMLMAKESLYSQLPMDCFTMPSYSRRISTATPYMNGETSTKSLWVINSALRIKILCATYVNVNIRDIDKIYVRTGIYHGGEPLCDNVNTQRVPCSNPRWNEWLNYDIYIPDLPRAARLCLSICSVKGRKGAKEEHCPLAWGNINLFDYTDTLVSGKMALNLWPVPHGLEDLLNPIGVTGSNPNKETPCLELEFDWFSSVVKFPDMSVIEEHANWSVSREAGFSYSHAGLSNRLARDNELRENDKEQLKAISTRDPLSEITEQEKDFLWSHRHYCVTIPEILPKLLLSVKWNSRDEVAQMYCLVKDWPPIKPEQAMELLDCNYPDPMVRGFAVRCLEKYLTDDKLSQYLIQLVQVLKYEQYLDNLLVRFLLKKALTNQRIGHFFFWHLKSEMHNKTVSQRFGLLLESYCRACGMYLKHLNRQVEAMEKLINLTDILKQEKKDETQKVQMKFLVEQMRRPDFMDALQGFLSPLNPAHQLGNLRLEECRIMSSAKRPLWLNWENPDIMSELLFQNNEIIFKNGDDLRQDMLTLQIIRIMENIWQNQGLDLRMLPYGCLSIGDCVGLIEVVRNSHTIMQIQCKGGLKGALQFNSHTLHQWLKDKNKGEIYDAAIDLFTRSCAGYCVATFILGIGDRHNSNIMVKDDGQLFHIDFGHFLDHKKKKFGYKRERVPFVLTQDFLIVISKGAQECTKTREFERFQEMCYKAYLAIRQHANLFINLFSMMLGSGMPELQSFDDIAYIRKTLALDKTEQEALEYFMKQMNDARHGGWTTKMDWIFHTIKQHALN
Sequence (P27986 whole entry partner): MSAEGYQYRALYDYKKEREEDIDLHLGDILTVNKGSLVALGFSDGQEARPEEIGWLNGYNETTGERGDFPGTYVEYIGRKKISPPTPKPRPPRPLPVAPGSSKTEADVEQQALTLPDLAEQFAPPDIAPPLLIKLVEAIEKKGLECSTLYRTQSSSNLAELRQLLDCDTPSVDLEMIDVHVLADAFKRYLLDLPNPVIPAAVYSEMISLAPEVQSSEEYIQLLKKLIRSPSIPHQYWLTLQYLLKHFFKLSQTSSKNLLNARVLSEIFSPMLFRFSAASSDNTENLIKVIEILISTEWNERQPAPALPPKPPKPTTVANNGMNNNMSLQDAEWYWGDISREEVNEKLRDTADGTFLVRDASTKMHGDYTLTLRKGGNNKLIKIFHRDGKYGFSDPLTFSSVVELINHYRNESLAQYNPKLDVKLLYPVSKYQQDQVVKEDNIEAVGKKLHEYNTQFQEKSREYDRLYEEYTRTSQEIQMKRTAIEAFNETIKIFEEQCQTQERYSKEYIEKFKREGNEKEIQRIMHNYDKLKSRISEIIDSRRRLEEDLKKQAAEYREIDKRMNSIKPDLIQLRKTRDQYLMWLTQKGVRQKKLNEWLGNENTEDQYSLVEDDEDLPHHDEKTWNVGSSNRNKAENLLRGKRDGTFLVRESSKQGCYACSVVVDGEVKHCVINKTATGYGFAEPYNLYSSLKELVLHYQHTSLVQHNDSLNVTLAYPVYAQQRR
pIC50: −log10 of the molar value.
OBSERVATION_TYPE: pIC50

>  <COMPOUND>
Cc1cc([C@@H](C)Nc2ccccc2C(=O)O)c2nc(-c3ccc4c(c3)c(C#N)nn4C3CC3)c(C)c(=O)n2c1

>  <READOUT_VALUE>
6.30 to 7.00

$$$$
>  <COMPOUND>
Cc1cc([C@H](C)Nc2ccccc2C(=O)O)c2nc(C3CCCOC3)c(C#N)c(=O)n2c1 (stereo partly shown)

>  <READOUT_VALUE>
< 5.70

$$$$
>  <COMPOUND>
Cc1cc([C@H](C)Nc2ccccc2C(=O)O)c2nc(-c3cccnc3)c(C)c(=O)n2c1

>  <READOUT_VALUE>
< 5.70

$$$$
>  <COMPOUND>
Cc1cc([C@H](C)Nc2ccccc2S(N)(=O)=O)c2nc([C@H]3CCCOC3)c(C)c(=O)n2c1

>  <READOUT_VALUE>
5.70 to 6.30

$$$$
>  <COMPOUND>
Cc1cc(C(C)Nc2ccccc2C(=O)O)c2nc(-c3ccc(C4CCN(C(=O)C5CC5)CC4)c(F)c3)c(C)c(=O)n2c1 (stereo not shown)

>  <READOUT_VALUE>
> 7.00

$$$$
>  <COMPOUND>
COc1cc(-c2nc3c([C@@H](C)Nc4ccccc4C(=O)O)cc(C)cn3c(=O)c2C)cn2ncc(C#N)c12

>  <READOUT_VALUE>
6.30 to 7.00

$$$$
>  <COMPOUND>
Cc1cc(C(C)Nc2ccccc2C(=O)O)c2nc(-c3cc(C)nc(Cl)c3)c(C)c(=O)n2c1 (stereo not shown)

>  <READOUT_VALUE>
> 7.00

$$$$
>  <COMPOUND>
Cc1cc(C(C)Nc2ccccc2C(=O)O)c2nc(-c3ccc4c(n3)c(C)nn4C)c(C)c(=O)n2c1 (stereo not shown)

>  <READOUT_VALUE>
6.30 to 7.00

$$$$

Your task in this section: give pIC50 for each listed record.
1. Cc1cc(C(C)Nc2ccccc2-c2nnn[nH]2)c2nc(N3Cc4ccccc4C3)cc(=O)n2c1 (stereo not shown)
2. Cc1cc([C@@H](C)Nc2ccccc2C(=O)O)c2nc(-c3ccc(C4CCOCC4)nc3)c(C)c(=O)n2c1
3. Cc1cc([C@H](C)Nc2ccccc2C(=O)O)c2nc(C3CCOCC3)c(C)c(=O)n2c1
4. Cc1cc([C@H](C)Nc2ccccc2C(=O)O)c2nc(-c3ccc(CC4CCN(C(=O)C5CC5)CC4)c(F)c3)c(C)c(=O)n2c1

Output:
1. 6.30 to 7.00
2. > 7.00
3. < 5.70
4. < 5.70

# map each compound to its pIC50
1. Cc1cc([C@H](C)Nc2ccccc2C(=O)O)c2nc(C3Cc4ccccc4C3)c(C3CC3)c(=O)n2c1 (single isomer, unassigned)
2. Cc1cc([C@@H](C)Nc2ccccc2C(=O)O)c2nc(-c3ccc(CC4CCN(C(=O)C5CC5)CC4)c(F)c3)c(C)c(=O)n2c1
3. Cc1cc(C(C)Nc2cccc3c2=NCN=3)c2nc(N3CCOCC3)cc(=O)n2c1 (stereo not shown)
4. Cc1cc([C@H](C)Nc2ccccc2C(=O)O)c2nc(-c3ccnc(C)c3)c(C)c(=O)n2c1
5. Cc1cc([C@@H](C)Nc2cccc3nonc23)c2nc(N3CCOCC3)cc(=O)n2c1

Output:
1: 5.70 to 6.30; 2: 6.30 to 7.00; 3: < 5.70; 4: < 5.70; 5: < 5.70

# per-item lookup of pIC50; items listed below
1. Cc1cc([C@H](C)N[C@@H]2CCCC[C@@H]2C(=O)O)c2nc(N3CCOCC3)cc(=O)n2c1
2. Cc1cc([C@@H](C)Nc2ccccc2C(=O)O)c2nc(N3Cc4ccccc4[C@H]3C)cc(=O)n2c1
3. Cc1cc([C@@H](C)Nc2ccccc2S(N)(=O)=O)c2nc(-c3ccc(C4CCOCC4)nc3)c(C)c(=O)n2c1

Output:
1: < 5.70; 2: < 5.70; 3: 5.70 to 6.30
